experiment: MTT cell toxicity assay in HEK293T cells; assay type: cell-based; conditions: human, all doses (25 to 100 μM)
Recorded viability at 24 h, one value per entry.
endpoint-label: viability at 24 h

- sample-smiles: "COc1ccc(C(=O)C[C@@]2(O)C(=O)N(Cc3ccccc3)c3ccc(Br)cc32)cc1[N+](=O)[O-]"
  result: "> 50%"
- sample-smiles: "O=C(COc1ccccc1C(=O)Nc1cccc(Cl)c1Cl)Nc1ccc(N2CCOCC2)c(Cl)c1"
  result: "> 50%"

----------
assay: MTT cell toxicity assay in N2A cells; format: cell-based; conditions: mouse, N2A (Neuro2A) cells, all doses (25 to 100 μM)
Recorded viability at 24 h, one value per entry.

- compound: "O=C(COc1ccccc1C(=O)Nc1cccc(Cl)c1Cl)Nc1ccc(N2CCOCC2)c(Cl)c1 [BLINK11]"
  viability at 24 h: "> 50%"
- compound: "COc1ccc(C(=O)C[C@@]2(O)C(=O)N(Cc3ccccc3)c3ccc(Br)cc32)cc1[N+](=O)[O-] [BLINK15]"
  viability at 24 h: "> 50%"

----------
molecular target: Cdk5/p25 (Homo sapiens); test: Cdk5 kinase assay (ADP-Glo) with Cdk5/p25 complex; assay type: biochemical; conditions: 10 μM ATP, histone substrate, inhibitor 0-100 nM
Sequence (Q00535 whole entry, species assumed): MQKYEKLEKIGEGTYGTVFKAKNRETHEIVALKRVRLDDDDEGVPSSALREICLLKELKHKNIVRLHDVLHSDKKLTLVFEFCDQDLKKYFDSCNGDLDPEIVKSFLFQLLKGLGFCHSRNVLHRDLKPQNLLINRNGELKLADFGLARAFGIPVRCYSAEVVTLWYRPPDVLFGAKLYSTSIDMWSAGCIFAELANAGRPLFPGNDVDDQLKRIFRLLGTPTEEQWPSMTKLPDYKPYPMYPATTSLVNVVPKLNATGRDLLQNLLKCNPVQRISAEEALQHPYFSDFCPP
Sequence (Q15078 99-307 partner limits assumed, species assumed): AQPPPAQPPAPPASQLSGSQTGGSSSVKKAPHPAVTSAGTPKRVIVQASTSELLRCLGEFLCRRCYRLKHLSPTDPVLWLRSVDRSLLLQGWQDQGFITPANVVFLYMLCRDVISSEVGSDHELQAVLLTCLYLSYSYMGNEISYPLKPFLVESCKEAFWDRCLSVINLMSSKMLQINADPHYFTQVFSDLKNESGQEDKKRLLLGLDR
Recorded IC50, one value per entry.

- compound: "Cc1cc(C)c2nc(-c3cccnc3)cc(C(=O)Nc3sc(Cc4ccccc4)cc3C(N)=O)c2c1 [BLINK14]"
  IC50 / nM: 23.1
- compound: "COc1ccc(C(=O)CSc2nc3sc(C)c(C)c3c(=O)[nH]2)cc1C [BLINK2]"
  IC50 / nM: 33.5
- compound: "O=C(CSc1nnc(-c2ccccc2Cl)[nH]1)c1ccc(O)c(O)c1 [BLINK13]"
  IC50 / nM: 41.5
- compound: "OCCCNc1nc(-c2ccccc2Cl)c2cc(Br)ccc2n1 [BLINK6]"
  IC50 / nM: 141
- compound: "CC1CCc2c(sc3nc(CCl)ncc23)C1 (centres unmarked) [BLINK19]"
  IC50 / nM: 48.1
- compound: "O=C1c2cccc3cccc(c23)C(=O)N1CCCSc1n[nH]c(-c2ccc(F)cc2)n1 [BLINK18]"
  IC50 / nM: 32.1
- compound: "CC1(C)Cc2c(sc3nc(SCC(=O)O)[nH]c(=O)c23)CO1 [BLINK1]"
  IC50 / nM: 18.4
- compound: "O=C(COc1ccccc1C(=O)Nc1cccc(Cl)c1Cl)Nc1ccc(N2CCOCC2)c(Cl)c1 [BLINK11]"
  IC50 / nM: 14.7

----------
Recorded IC50, one value per entry.
molecular target: Cdk5/p35 (Homo sapiens, UniProt Q00535); test: Cdk5 kinase assay (ADP-Glo) with Cdk5/p35 complex; format: biochemical; conditions: 10 μM ATP, histone substrate, inhibitor 0-100 nM
Sequence (Q00535 whole entry, species assumed): as the sequence (Q00535 whole entry, species assumed) above
Sequence (Q15078 whole entry partner, species assumed): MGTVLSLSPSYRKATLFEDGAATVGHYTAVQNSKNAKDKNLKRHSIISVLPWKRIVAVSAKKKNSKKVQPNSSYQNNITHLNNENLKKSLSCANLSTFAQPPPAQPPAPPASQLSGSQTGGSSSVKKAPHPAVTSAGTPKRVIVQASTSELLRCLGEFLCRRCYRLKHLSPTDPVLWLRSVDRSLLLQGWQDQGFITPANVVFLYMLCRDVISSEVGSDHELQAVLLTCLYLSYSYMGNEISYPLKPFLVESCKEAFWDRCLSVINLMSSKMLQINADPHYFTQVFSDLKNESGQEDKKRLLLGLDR

- molecule: "CN(C)C(=O)CSc1nc2sc3c(c2c(=O)[nH]1)CCCC3"
  IC50: "16.9 nM"
- molecule: "Cc1nnc(SCC(=O)Nc2nsc(-c3ccc(Cl)cc3)n2)s1"
  IC50: "85.2 nM"
- molecule: "COc1ccc(C(=O)C[C@@]2(O)C(=O)N(Cc3ccccc3)c3ccc(Br)cc32)cc1[N+](=O)[O-]"
  IC50: "29.3 nM"
- molecule: "Cc1cc(C)c2nc(-c3cccnc3)cc(C(=O)Nc3sc(Cc4ccccc4)cc3C(N)=O)c2c1"
  IC50: "24.8 nM"
- molecule: "CC1CCc2c(sc3nc(CCl)ncc23)C1 (stereo not shown)"
  IC50: "55.3 nM"
- molecule: "Cc1ccc2nc(Nc3nc(O)cc(CSc4nnc(C)s4)n3)nc(C)c2c1"
  IC50: "50.6 nM"
- molecule: "OCCCNc1nc(-c2ccccc2Cl)c2cc(Br)ccc2n1"
  IC50: "183 nM"

These entries and their values trace back to paper PMC11986975.
